Recorded IC50 values for a group of compounds are listed next.
target system: human Cot/Tpl2 kinase (Homo sapiens)
Construct: human Cot/Tpl2 kinase construct encoding residues 30-398; 6His (N); made in house; host or cells: Sf9 insect cells, baculovirus system (BD Biosciences)
procedure summary: Tpl2/Cot kinase assay: GST-MEK1 phosphorylation detected by ELISA (DELFIA Eu)
Type: biochemical
test conditions: Table 2; Tpl2/Cot kinase, GST-MEK1 substrate, 50 uM ATP

{"molecule": "N#Cc1cnc2c(Br)cc(NCc3ccc(C(O)(C(F)(F)F)C(F)(F)F)cc3)cc2c1Nc1ccc(F)c(Cl)c1", "readout units": "nM", "comparator": ">", "IC50": 40000}
{"molecule": "C=CCn1cc(CNc2cc(Br)c3ncc(C#N)c(Nc4ccc(F)c(Cl)c4)c3c2)nn1", "readout units": "nM", "comparator": "=", "IC50": 20}
{"molecule": "CN1CCC(Cn2cc(CN(C)c3cc(Br)c4ncc(C#N)c(Nc5ccc(F)c(Cl)c5)c4c3)nn2)CC1", "readout units": "nM", "comparator": "=", "IC50": 290}
{"molecule": "N#Cc1cnc2ccc(NCCN3CCOCC3)cc2c1Nc1ccc(F)c(Cl)c1", "readout units": "nM", "comparator": "=", "IC50": 1000}
{"molecule": "CCN(C[C@@H]1CCCN1C(=O)OC(C)(C)C)c1cc(Cl)c2ncc(C#N)c(Nc3ccc(F)c(Cl)c3)c2c1", "readout units": "nM", "comparator": ">", "IC50": 3000}
{"molecule": "N#Cc1cnc2ccc(NCc3cc[nH]n3)cc2c1Nc1ccc(F)c(Cl)c1", "readout units": "nM", "comparator": "=", "IC50": 74}
{"molecule": "Cn1nc(CNc2cc(Br)c3ncc(C#N)c(Nc4ccc(F)c(Cl)c4)c3c2)cc1-c1ccccc1", "readout units": "nM", "comparator": ">", "IC50": 40000}
{"molecule": "Cn1cncc1CNc1cc(Cl)c2ncc(C#N)c(Nc3ccc(F)c(Cl)c3)c2c1", "readout units": "nM", "comparator": "=", "IC50": 220}
{"molecule": "N#Cc1cnc2ccc(NCCN3CCOCC3)cc2c1NC1CCCC1", "readout units": "nM", "comparator": "=", "IC50": 19700}
{"molecule": "CN(C)C(=O)OCCCn1cc(CNc2cc(Br)c3ncc(C#N)c(Nc4ccc(F)c(Cl)c4)c3c2)nn1", "readout units": "nM", "comparator": "=", "IC50": 3.5}
{"molecule": "CN(C)c1cccc(Nc2c(C#N)cnc3ccc(NCCN4CCOCC4)cc23)c1", "readout units": "nM", "comparator": ">", "IC50": 10000}
{"molecule": "COC(=O)c1cccc(CNc2ccc3ncc(C#N)c(Nc4ccc(F)c(Cl)c4)c3c2)c1", "readout units": "nM", "comparator": "=", "IC50": 320}

* * *

Recorded IC50 values for a group of compounds are listed next.
target system: human Cot/Tpl2 kinase (Homo sapiens, UniProt P41279)
Construct: human Cot/Tpl2 kinase construct encoding residues 30-398; 6His (N); made in house; host or cells: Sf9 insect cells, baculovirus system (BD Biosciences)
Sequence (P41279 30-398): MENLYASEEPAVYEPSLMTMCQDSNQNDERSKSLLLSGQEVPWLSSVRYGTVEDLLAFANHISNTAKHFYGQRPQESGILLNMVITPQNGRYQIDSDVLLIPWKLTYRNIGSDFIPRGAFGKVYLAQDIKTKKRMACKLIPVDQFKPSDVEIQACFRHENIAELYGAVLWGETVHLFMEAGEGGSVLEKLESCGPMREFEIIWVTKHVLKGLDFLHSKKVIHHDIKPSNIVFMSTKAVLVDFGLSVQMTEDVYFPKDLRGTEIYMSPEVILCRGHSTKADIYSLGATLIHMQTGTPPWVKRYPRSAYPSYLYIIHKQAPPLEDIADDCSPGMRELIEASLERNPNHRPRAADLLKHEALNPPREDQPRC
procedure summary: Tpl2/Cot kinase assay: GST-MEK1 phosphorylation detected by ELISA (DELFIA Eu)
Assay type: biochemical
test conditions: Table 2; Tpl2/Cot kinase, GST-MEK1 substrate, 50 uM ATP
outcome measure: IC50 (nM)

{"compound": "N#Cc1cnc2ccc(NCCN3CCOCC3)cc2c1NC1CCN(Cc2ccccc2)CC1", "comparator": ">", "result value": 40000}
{"compound": "N#Cc1cnc2c(Br)cc([N+](=O)[O-])cc2c1Nc1cccc(Cl)c1", "comparator": ">", "result value": 10000}
{"compound": "N#Cc1cnc2ccc(NCCN3CCOCC3)cc2c1Nc1cccc(C(F)(F)F)c1", "comparator": ">", "result value": 10000}
{"compound": "N#Cc1cnc2c(Cl)cc(NCC(CO)c3ccncc3)cc2c1Nc1ccc(F)c(Cl)c1 (stereo not drawn)", "comparator": ">", "result value": 3000}
{"compound": "CC(C)c1cccc(Nc2c(C#N)cnc3ccc(NCCN4CCOCC4)cc23)c1", "comparator": ">", "result value": 10000}
{"compound": "CCc1nc(C)c(CNc2ccc3ncc(C#N)c(Nc4ccc(F)c(Cl)c4)c3c2)[nH]1", "comparator": "=", "result value": 640}
{"compound": "CN(C)CCC(c1cccnc1)n1cc(CNc2cc(Br)c3ncc(C#N)c(Nc4ccc(F)c(Cl)c4)c3c2)nn1 (stereo not drawn)", "comparator": "=", "result value": 6.7}
{"compound": "CC(C)(C)OC(=O)N1CCC(CCn2cc(CNc3cc(Cl)c4ncc(C#N)c(Nc5ccc(F)c(Cl)c5)c4c3)nn2)CC1", "comparator": "=", "result value": 75}
{"compound": "CS(=O)(=O)N1CCC(n2cc(CNc3cc(Br)c4ncc(C#N)c(Nc5ccc(F)c(Cl)c5)c4c3)nn2)CC1", "comparator": "=", "result value": 1.1}
{"compound": "CN1CCC(Nc2ccc3ncc(C#N)c(Nc4ccc(F)c(Cl)c4)c3c2)CC1", "comparator": ">", "result value": 10000}
{"compound": "N#Cc1cnc2c(CCO)cc(NCc3cnc[nH]3)cc2c1Nc1ccc(F)c(Cl)c1", "comparator": "=", "result value": 1200}
{"compound": "CC(C)(C)CN1CCC(n2cc(CNc3cc(Br)c4ncc(C#N)c(Nc5ccc(F)c(Cl)c5)c4c3)nn2)CC1", "comparator": "=", "result value": 190}
{"compound": "CC(C)(C)OC(=O)COc1ccc(CNc2ccc3ncc(C#N)c(Nc4ccc(F)c(Cl)c4)c3c2)cc1Br", "comparator": ">", "result value": 40000}
{"compound": "CN(C)C(=O)CNc1cc(Cl)c2ncc(C#N)c(Nc3ccc(F)c(Cl)c3)c2c1", "comparator": "=", "result value": 1700}
{"compound": "N#Cc1cnc2ccc(NCc3ccc(=O)n(CCN4CCOCC4)c3)cc2c1Nc1ccc(F)c(F)c1", "comparator": "=", "result value": 1700}

Data provenance: patent US20060264460A1
